System: panel of human cell lines
Experiment: In vitro proliferation assay, Cell Titer Glo, two doubling times, 298 cell lines
Type: cell-based
Details: Homo sapiens, MEG-01, MEG-01, haematopoietic and lymphoid tissue; read-out: ABS_IC50_VALUE
Parameter measured: IC50
Please answer using the number first and the unit second.

So, O=c1[nH]ccc2cc(F)c(NS(=O)(=O)c3ccc(N4CC[C@@H](O)C4)s3)cc12 [LSN3213128] ? Its IC50 was 290 nM

----------
Tested on: panel of human cell lines
Assay: In vitro proliferation assay, Cell Titer Glo, two doubling times, 298 cell lines
Type: cell-based
Details: Homo sapiens, NCI-H2081, NCI-H2081, lung; read-out: ABS_IC50_VALUE
Parameter measured: IC50

So, `O=c1[nH]ccc2cc(F)c(NS(=O)(=O)c3ccc(N4CC[C@@H](O)C4)s3)cc12` ? Its IC50 was > 20 µM
